System: Plasmodium falciparum
PROTOCOL DETAILS: Primary screen in NF54 nanoGlo assay, in single point, at 2uM, 72h
Format: functional, Erythrocyte
CONDITION: timepoint 72 hour
Out of some 150,000 compounds screened, about 540 (0.36%) showed an effect of 50% or more. The sample holds strong results, similar compounds and a random draw of the others, so the mix is not that of the screen.
Listing: Z score of selected compounds
TEST READOUT: Z score

# COMPOUND, READING
rows = [
    ("Nc1ncc(C(=O)N2CCC3(CCCC3)C2)s1", -0.8),
    ("Cc1ccc(-n2nc(C)cc2NS(=O)(=O)c2c(C)nn(C(C)C)c2C)nn1", 1.42),
    ("COc1ccc(C2N[C@H](C(=O)O)Cc3c2[nH]c2ccccc32)cc1 (some centres not stated)", 2.25),
    ("COc1c2c(cc3c1[C@@H](C#CCOc1ccccc1)[N+](C)(C)CC3)OCO2", -13.6),
    ("Cc1noc(CNC(=O)c2ccc3[nH]c(=O)[nH]c3c2)n1", 1.3),
    ("O=C(NCCc1nc2ccccc2[nH]1)C(F)(F)c1ccc(F)cc1", -0.36),
    ("COc1c2c(cc3c1[C@H](CC(=O)Cc1ccccc1)[N+](C)(C)CC3)OCO2", 0.08),
]

====

Listing: % Inhibition of selected compounds
Test system: Plasmodium falciparum
PROTOCOL DETAILS: Primary screen in NF54 nanoGlo assay, in single point, at 2uM, 72h
Format: functional, Erythrocyte
CONDITION: timepoint 72 hour
Screen size: about 150,000 compounds; about 540 (0.36%) showed an effect of 50% or more. This excerpt belongs to a sample that is enriched for strong results.

# COMPOUND, % Inhibition, %
rows = [
    ("Cc1ccc(C(=O)N2CCC3(CCc4nn(Cc5ccccc5)c(=O)n4CC3)CC2)s1", -7),
    ("Cc1cc(C)cc(-c2cc3nc(C)cc(N4CCC(C(=O)NCc5cccc(F)c5)CC4)n3n2)c1", 75),
    ("CCNC(=O)c1cc(NCCc2nccn2Cc2ccccc2)ccn1", -9),
    ("N#Cc1cccc(CN2Cc3nc[nH]c3C[C@H]2C(=O)NCc2ccco2)c1", -5),
    ("CN1CCN(c2cc(N3CCN(C(=O)Cc4ccccc4)CC3)ncn2)CC1", -10),
    ("Cc1ccc(CC[C@H]2Nc3ccccc3C(c3ccccc3)(c3ccccc3)O2)o1", 81),
    ("CN(C)Cc1cc(CN(C)C)c(O)c(CCc2ccccc2)n1", 7),
    ("Cc1cc(NC(=O)C(=O)NC2CC(C)CC(C)(C)C2)n(-c2nc3c(c(=O)[nH]2)CCC3)n1 (stereo unspecified)", 85),
    ("O=C(Cc1ccc2[nH]c(=O)[nH]c2c1)N1CCOC[C@@H]1CC1CCC1", 2),
    ("O=C(C[C@H](n1cccn1)C(F)(F)F)N1CCN(C2CC2)c2ccc(Cl)cc21", -2),
    ("CN(C)Cc1ccc(O)c(CCc2ccccc2)n1", 64),
    ("COC[C@H]1CCCN1S(=O)(=O)N1CCC(c2cc[nH]n2)CC1", -7),
    ("COc1cc(CNC2CCCCCC2)ccc1OC[C@@H](O)CN1CCCCCC1", 1),
    ("CC(C)(C[C@H]1CCCN(C(=O)C2(C)CCCC2)C1)C(N)=O", -4),
    ("O=C(c1cccc2cc[nH]c12)N1C[C@@H]2[C@H](C1)[C@H]1CC[C@@H]2O1", 18),
    ("Cc1oc(C2CCN(C(=O)Nc3cccc(F)c3C)CC2)nc1C(=O)N1CCCC1", -3),
    ("O=C(COc1ccc(Cl)cc1)NC1CCN(Cc2ccccc2)CC1", -10),
    ("CCc1cccc(NC(=O)N2CCN(c3nccs3)CC2)c1", -2),
    ("COc1ccccc1OCC(=O)Nc1cc(C)nn1-c1nc2c(c(=O)[nH]1)CCC2", 1),
    ("O=C(N[C@@H]1c2ccccc2OC[C@@H]1CO)[C@H](O)c1ccccc1", -2),
    ("COc1cc(-c2cc(-c3cccnc3)c3c(ccc4ccccc43)n2)cc(Cl)c1O", 18),
    ("O=C(Nc1cc(F)cc(F)c1)N1CC[C@H](Cc2ccncc2)C1", -5),
    ("CC[C@H]1CN(Cc2cccn2-c2nccs2)CCN1C", -2),
    ("CN1CCC(Oc2cc(NC(=O)c3cscn3)ccn2)CC1", -16),
    ("Cc1cc(C(=O)N2CCOC3(CCS(=O)(=O)CC3)C2)c(C)s1", -13),
    ("COCC(=O)Nc1cc(C)nn1-c1nc2c(c(=O)[nH]1)CCC2", 1),
]

====

Listing: % Inhibition of selected molecules
Test system: Plasmodium falciparum
PROTOCOL DETAILS: Primary screen in NF54 nanoGlo assay, in single point, at 2uM, 72h
Type: functional, Erythrocyte
CONDITION: timepoint 72 hour
Out of some 150,000 compounds screened, about 540 (0.36%) showed an effect of 50% or more. For the sample, strong results were picked, then their nearest neighbours and some compounds at random.
TEST READOUT: % Inhibition (%)

# MOLECULE, READING
records = [
    ("COc1ccc2c(O)c(C(=O)NCCN(C)C)cnc2c1", -7),
    ("CCN1CCN(C2CCN(c3ncc(F)c(OC)n3)CC2)CC1", 51),
    ("O=C1Nc2ccc(F)cc2C12CCNC2c1ccc2c(c1)OCCO2 (centres undefined)", 31),
    ("CCCN(CCC)C(=O)CN1CCN(Cc2ccc3c(c2)CCO3)CC1", -11),
    ("O=C(Cn1cnc2ccc(Cl)cc2c1=O)NCCCc1ccccc1", 2),
    ("O=C(c1ccccc1)c1ccc(O)c(CN2CCCN(c3ccc(C(F)(F)F)cn3)CC2)c1O", 84),
    ("COc1cccc(Cl)c1CN[C@H]1CCCc2occc21", -24),
    ("CCn1cnnc1NC(=O)c1cc(C)sn1", 1),
    ("CN(Cc1cc2cc(F)ccc2[nH]1)Cc1ccnn1C", -9),
    ("CCOC(=O)C1CCCN(C2CCN(C(=O)CCC3(Cc4ccc(C)cc4)CCC(=O)N3)CC2)C1 (centres undefined)", -5),
    ("CC(C)c1ccc(CCCNS(N)(=O)=O)cc1", 7),
    ("COc1ccc(S(=O)(=O)N2CCC(c3cc(N)on3)CC2)cc1Cl", 57),
    ("Cc1ccc2nc(-c3cnoc3C)cn2c1", 0),
    ("C[C@H](Oc1ccccc1F)c1nnc2n1CCCC2", -9),
    ("CC(C)[C@H]1CN(C(=O)c2nc(C(F)(F)F)n3c2CCCC3)CCN1", -15),
    ("CNC(=O)[C@@H]1C[C@H](NCc2ccccc2F)CN1CC(c1ccccc1)c1ccccc1", 9),
    ("CC[C@H](C)N1CC(=O)N(c2ccns2)C1=O", -14),
    ("COc1nc(NC2CCS(=O)(=O)CC2)ncc1F", 65),
    ("O=C1N[C@@H](c2cccc(OCc3ccccc3)c2)Nc2c1sc(=S)n2-c1ccccc1", -12),
    ("CCCC(C)NC(=O)C(C)NC1CCN(C(C)=O)CC1CC (centres undefined)", -2),
    ("CCOC(=O)c1cn(CCc2c[nH]cn2)cc(Oc2ccccc2)c1=O", 0),
    ("CCc1nc2cc(N3CCC(C(=O)Nc4ccc5c(c4)OCO5)CC3)cnc2nc1CC", 73),
    ("CC(NCc1ccc(Br)c2cccnc12)C1CCOC1 (centres undefined)", -5),
    ("O[C@H]1CCN(Cc2cccc(OCCCCN3CCOCC3)c2)C[C@@H]1O", 4),
]

====

Tested on: Plasmodium falciparum
PROTOCOL DETAILS: Primary screen in NF54 nanoGlo assay, in single point, at 2uM, 72h
Type: functional, Erythrocyte
CONDITION: timepoint 72 hour
The whole screen tested about 150,000 compounds, of which about 540 (0.36%) showed an effect of 50% or more. The sample as a whole holds a higher share of strong results than the screen did.

# STRUCTURE SMILES, % Inhibition [%]
data = [
    ("Cc1nccn1CC(=O)N[C@@H](C)C1=CCCCC1", 3),
    ("COc1cccc(CN2CC[C@H]3C(=O)NCCCCCCN(Cc4ccncc4)[C@@H]3C2)n1", -5),
    ("Cn1nccc1[C@@H]1CN(C(=O)NCc2ccon2)CCO1", -3),
    ("Oc1cccc(CNc2cccc3cccnc23)c1", 27),
    ("CN(C)c1ccccc1NC(=O)Cn1ccc(=O)[nH]c1=O", -5),
    ("CN(Cc1cccnc1)C(=O)c1csc(NC(=O)c2ccc(Cl)cc2Cl)n1", -12),
    ("CNc1snc(C)c1C(=O)N1CCN(Cc2ccc(-c3cccc(F)c3)s2)CC1", 2),
    ("Oc1cc(-c2ccc(F)cc2)nn1-c1nc2ccccc2[nH]1", 36),
    ("COc1ccc([C@@H](CC(=O)N2CCCC2)c2cn(Cc3ccccc3)c3ccccc23)cc1", -8),
    ("CN1CCC(Oc2nc3ccc(F)cc3o2)CC1", -11),
]
